target: full-length beta-Catenin (Uniprot ID P35222) (Homo sapiens); construct: 10 nM full-length beta-Catenin (Uniprot ID P35222); experiment: Fluorescence polarization IC50 (beta-catenin / 5FAM-TCF4 10-53 competition); type: binding; conditions: fluorescence polarization; read-out: beta-Catenin FP IC50
Sequence (P35222 whole entry): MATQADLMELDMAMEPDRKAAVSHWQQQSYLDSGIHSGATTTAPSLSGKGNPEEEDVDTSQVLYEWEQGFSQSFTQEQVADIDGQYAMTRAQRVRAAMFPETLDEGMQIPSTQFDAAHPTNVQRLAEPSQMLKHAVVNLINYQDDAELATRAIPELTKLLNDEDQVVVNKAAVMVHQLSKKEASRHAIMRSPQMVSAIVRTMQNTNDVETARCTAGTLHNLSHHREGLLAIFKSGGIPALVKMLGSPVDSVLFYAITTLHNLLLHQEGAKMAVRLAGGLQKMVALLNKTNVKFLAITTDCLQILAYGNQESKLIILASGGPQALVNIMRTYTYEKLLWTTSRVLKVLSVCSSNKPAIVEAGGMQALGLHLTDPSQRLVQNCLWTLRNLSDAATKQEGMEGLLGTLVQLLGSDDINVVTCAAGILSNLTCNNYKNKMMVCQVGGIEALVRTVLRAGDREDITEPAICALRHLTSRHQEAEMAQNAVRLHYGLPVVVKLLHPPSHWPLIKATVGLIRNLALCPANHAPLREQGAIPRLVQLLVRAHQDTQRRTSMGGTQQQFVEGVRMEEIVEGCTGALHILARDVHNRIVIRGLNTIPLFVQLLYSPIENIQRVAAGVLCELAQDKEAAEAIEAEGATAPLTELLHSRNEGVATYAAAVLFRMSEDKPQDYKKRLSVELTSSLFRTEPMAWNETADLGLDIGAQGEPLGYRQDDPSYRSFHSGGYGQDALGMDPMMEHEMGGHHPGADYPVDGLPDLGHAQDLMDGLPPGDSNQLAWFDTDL
measurement kind: pIC50
# reply with the number alone; pIC50 is -log10 of concentration in mol/L

# input Find the recorded pIC50 belonging to CC(=O)N1CCC[C@]12CC=CCCCC1(CCCC=CCCCOC(=O)N3CC[C@@](C(=O)N[C@@H](Cc4ccsc4)C(=O)N[C@@H](Cc4csc5ccccc45)C(=O)N[C@H](C(N)=O)[C@@H](C)O)(C3)NC(=O)[C@H](CC(C)C)NC(=O)[C@H](Cc3ccccc3)NC(=O)[C@H](C)NC(=O)[C@H](C)NC(=O)[C@H](CC(=O)O)NC(=O)[C@H](CC(=O)O)NC1=O)NC(=O)[C@H](CC(C)(C)C)NC(=O)[C@H](CC(=O)O)NC2=O (some centres unmarked) and report it.
# output 8.30

# input Find the recorded pIC50 belonging to CC[C@H](C)[C@H](NC(=O)[C@H](CCC(N)=O)NC(=O)[C@H](Cc1csc2ccccc12)NC(=O)[C@H](Cc1ccccc1)NC(=O)[C@]1(C)CCCCCCC=CCCCC2(CCCC=CC[C@]3(CCCN3C(C)=O)C(=O)N[C@@H](CC(=O)O)C(=O)N[C@@H](CC(C)C)C(=O)N2)C(=O)N[C@@H](CC(=O)O)C(=O)N[C@@H](CCC(=O)O)C(=O)N[C@@H](C)C(=O)N[C@@H](C)C(=O)N[C@@H](Cc2ccccc2)C(=O)N[C@@H](CC(N)=O)C(=O)N1)C(N)=O (some centres unmarked) [I-733] and report it.
# output 5.37

# input Find the recorded pIC50 belonging to CC(=O)N1CCC[C@]12CC=CCCCCC1(CCCCC=CCCOC(=O)N3CC[C@@](C(=O)N[C@@H](Cc4ccccc4C(F)(F)F)C(=O)N[C@@H](Cc4csc5ccccc45)C(=O)N[C@@H](C)C(N)=O)(C3)NC(=O)[C@H](CC(C)C)NC(=O)[C@H](Cc3ccccc3)NC(=O)[C@H](C)NC(=O)[C@H](CCC(N)=O)NC(=O)[C@H](Cc3cccc(C(=O)O)c3)NC(=O)[C@H](CC(=O)O)NC1=O)NC(=O)[C@H](CC(C)(C)C)NC(=O)[C@H](CC(=O)O)NC2=O (some centres unmarked) [I-2519] and report it.
# output 7.03

# input Find the recorded pIC50 belonging to CC[C@H](C)[C@@H]1NC(=O)[C@H](CC(=O)O)NC(=O)[C@]2(CC=CCCCC3(CCCC=CCCCCCC[C@@](C)(C(=O)N[C@@H](Cc4ccccc4)C(=O)N[C@@H](Cc4csc5ccccc45)C(=O)N[C@@H](CCC(N)=O)C(N)=O)NC(=O)[C@H](CCC(N)=O)NC(=O)[C@H](Cc4ccccc4)NC(=O)[C@H](C)NC(=O)[C@H](C)NC(=O)[C@H](CCC(=O)O)NC(=O)C[C@H](C(=O)O)NC3=O)NC1=O)CCCN2C(C)=O (some centres unmarked) and report it.
# output 5.30

# input Find the recorded pIC50 belonging to CC(=O)N1CCC[C@]12CC=CCCCC1(CCCC=CCCCOC(=O)N3CC[C@@](C(=O)N[C@@H](Cc4ccccc4)C(=O)N[C@@H](Cc4csc5ccccc45)C(=O)N[C@@H](CCC(N)=O)C(N)=O)(C3)NC(=O)[C@H](Cc3ccccc3)NC(=O)[C@H](Cc3ccccc3)NC(=O)[C@H](C)NC(=O)[C@H](CCCCNC(C)C)NC(=O)[C@H]([C@@H](C)O)NC(=O)[C@H](CC(=O)O)NC1=O)NC(=O)[C@H](CC(C)(C)C)NC(=O)[C@H](CC(N)=O)NC2=O (some centres unmarked) and report it.
# output 5.97

Reference source for all entries: patent US20240116985A1
